# experimental_details: qHTS for Inhibitors of human tyrosyl-DNA phosphodiesterase 1 (TDP1): qHTS in cells in absence of CPT; further: nearly all actives have a fitted effect of over 55% in size
# measurement_context: DT40 Tdp1-/- hTDP1 cells, no CPT, ATP luminescence, 48 h
The campaign covered roughly 420,000 compounds. About 64,000 (15%) were called active. Inconclusive results (about 27%) are left out. The call rests on the fitted dose curve; in most records, active means well fitted inhibition curve with a large enough effect; inconclusive means small, poorly fitted or top-dose-only effect; inactive means flat fitted curve, though single readings scatter. These entries were drawn from the full list.
Respond only with the outcome that fits, drawn from 1 for active, -1 for inactive

QUERY: Write down the call the test reported for this molecule. Item: `COc1ccccc1CNc1nc2ccc(Cl)cc2n2cnnc12`
RESULT: -1

QUERY: Hey, what did the test say about `COc1ccc(C)cc1S(=O)(=O)Nc1cccc(Cl)c1Cl` ?
RESULT: -1

QUERY: Test call for this molecule, please: `COc1ccc(CNS(=O)(=O)c2cc3c4c(c2)CCN4C(=O)CC3)cc1`
RESULT: -1

QUERY: Hello, I am checking results. What call was entered for `COc1ccc(OC)c2c(N)c(C#N)c(C(F)(F)C(F)(F)F)nc12` ?
RESULT: -1

QUERY: Hi, do you know how `O=C(NCc1ccccn1)Nc1ccc(F)cc1` came out in this test?
RESULT: -1

QUERY: Test call for this molecule, please: CCOC(=O)CSc1nnc(NC(=O)C2CC(=O)N(c3ccc(F)cc3)C2)s1 (stereo not drawn)
RESULT: -1

QUERY: Record request — test call for `COc1ccc(CNS(=O)(=O)c2ccc(-c3cnc(C4CC4)o3)cc2)cc1`
RESULT: 1

QUERY: I'd appreciate the recorded outcome for `COc1cccc(NCCC(=O)c2cccc([N+](=O)[O-])c2)c1` from this test.
RESULT: 1

QUERY: I'd appreciate the recorded outcome for O=C(NC1CC1)C1CCCN(C(=O)NC2CCCCC2)C1 (stereo not drawn) from this test.
RESULT: -1

QUERY: Check the results log: what was the call for CSCCC(NC(=O)COc1ccccc1)C(=O)OCC(=O)c1cc2ccccc2o1 (stereo not drawn) ?
RESULT: -1

QUERY: Assay result, entry `COc1ccc(S(=O)(=O)NCc2cccn2Cc2cccc(C)c2)cc1` — outcome?
RESULT: -1

QUERY: Assay outcome for CC(C)Cc1ccc(C(C)C(=N)N)cc1 (stereo not drawn) : what was it?
RESULT: 1

QUERY: Call for entry `Cc1ccc(S(=O)(=O)N[C@H]2CCC[C@@H]2O)cc1` :
RESULT: -1

QUERY: Hey, what did the test say about `COc1ccc2oc(=O)c(C(=O)N3CCCC3)cc2c1` ?
RESULT: -1

QUERY: What outcome does the record of this test show for `COC(=O)c1scc(-c2ccc(C)cc2)c1S(=O)(=O)Nc1cc(Cl)c(OC)cc1OC` ?
RESULT: 1

QUERY: Tell me the recorded outcome of this test for `O=C(NCc1ccco1)/C(=C/c1cccc([N+](=O)[O-])c1)NC(=O)c1ccco1` .
RESULT: -1

QUERY: GET /call?item= `COc1cccc(CNC(=O)CCCC(=O)Nc2cccc([N+](=O)[O-])c2)c1` returns the recorded outcome of this test.
RESULT: -1

QUERY: State the result this test recorded for COCCn1c(SC(C)C(=O)NC2CC2)nnc1-c1cccc(C)c1 (stereo not drawn) .
RESULT: -1

QUERY: Which result was noted for this molecule in the test: `CC(C)Cc1nc(Cl)c(C#N)c2c1CCC2`
RESULT: -1

QUERY: Hi team, can someone confirm the assay call for `C/C(=N\NC(=O)CCn1nc(C)cc1C)C(C)(C)C` ?
RESULT: -1

QUERY: Which result was noted for this molecule in the test: CC(NC(=O)C(=O)N/N=C/c1ccc(Cl)cc1)c1ccccc1 (stereo not drawn)
RESULT: -1

QUERY: What outcome does the record of this test show for `COc1cc(NC(=O)c2cccnc2SC)cc(OC)c1` ?
RESULT: -1

QUERY: State the result this test recorded for O=C(NN1C(=O)C2C3C=CC(C3)C2C1=O)c1ccco1 (stereo not drawn) .
RESULT: -1
